We begin with a simple list: items and their reported pKa.
Test: Dissociation constant (pKa)
Format: physicochemical
Enter a number only.

Some solved entries appear below for comparison.
CCCC(=O)NC(CO)C(O)c1ccc([N+](=O)[O-])cc1 (centres undefined) = 4.82
O=CNC(CO)C(O)c1ccc([N+](=O)[O-])cc1 (centres undefined) = 3.77

Output measured pKa for this item: O=C(CF)NC(CO)C(O)c1ccc([N+](=O)[O-])cc1 (centres undefined)
2.66

Return pKa (reported value) for this compound: O=[N+]([O-])c1ccc(C(O)C(CO)NP(=O)(O)CCl)cc1 (centres undefined)
1.4
